# System Under Test: human integrin αvβ5 (Homo sapiens, UniProt P06756+P18084)
# Sequence (P06756 31-889 limits assumed): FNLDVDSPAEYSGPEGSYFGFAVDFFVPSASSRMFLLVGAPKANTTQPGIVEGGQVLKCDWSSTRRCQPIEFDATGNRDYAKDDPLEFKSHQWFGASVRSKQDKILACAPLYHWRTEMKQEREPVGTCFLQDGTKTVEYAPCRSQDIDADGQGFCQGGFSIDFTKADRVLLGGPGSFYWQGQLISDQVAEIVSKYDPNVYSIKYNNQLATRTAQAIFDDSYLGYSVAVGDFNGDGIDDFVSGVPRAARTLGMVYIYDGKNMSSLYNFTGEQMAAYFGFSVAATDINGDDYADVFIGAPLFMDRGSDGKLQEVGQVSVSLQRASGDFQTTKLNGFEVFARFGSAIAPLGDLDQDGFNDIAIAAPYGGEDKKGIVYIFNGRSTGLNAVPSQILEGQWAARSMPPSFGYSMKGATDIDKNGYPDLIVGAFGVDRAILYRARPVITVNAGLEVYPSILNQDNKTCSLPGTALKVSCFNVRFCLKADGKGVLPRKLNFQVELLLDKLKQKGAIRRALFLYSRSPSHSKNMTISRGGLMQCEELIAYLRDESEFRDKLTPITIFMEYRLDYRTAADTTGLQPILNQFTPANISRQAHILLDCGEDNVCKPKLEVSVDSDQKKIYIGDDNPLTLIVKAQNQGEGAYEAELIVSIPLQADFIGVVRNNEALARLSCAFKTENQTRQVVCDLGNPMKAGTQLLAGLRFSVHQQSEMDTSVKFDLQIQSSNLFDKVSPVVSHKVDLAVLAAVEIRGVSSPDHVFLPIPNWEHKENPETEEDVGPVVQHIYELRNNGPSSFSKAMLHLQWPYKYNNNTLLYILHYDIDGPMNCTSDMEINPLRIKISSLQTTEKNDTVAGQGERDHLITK
# Sequence (P06756 891-1048 partner limits assumed): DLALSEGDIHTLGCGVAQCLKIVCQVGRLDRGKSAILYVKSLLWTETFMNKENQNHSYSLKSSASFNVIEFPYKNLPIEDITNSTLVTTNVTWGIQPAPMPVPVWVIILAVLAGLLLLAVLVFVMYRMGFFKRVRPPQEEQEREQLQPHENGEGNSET
# Sequence (P18084 24-799): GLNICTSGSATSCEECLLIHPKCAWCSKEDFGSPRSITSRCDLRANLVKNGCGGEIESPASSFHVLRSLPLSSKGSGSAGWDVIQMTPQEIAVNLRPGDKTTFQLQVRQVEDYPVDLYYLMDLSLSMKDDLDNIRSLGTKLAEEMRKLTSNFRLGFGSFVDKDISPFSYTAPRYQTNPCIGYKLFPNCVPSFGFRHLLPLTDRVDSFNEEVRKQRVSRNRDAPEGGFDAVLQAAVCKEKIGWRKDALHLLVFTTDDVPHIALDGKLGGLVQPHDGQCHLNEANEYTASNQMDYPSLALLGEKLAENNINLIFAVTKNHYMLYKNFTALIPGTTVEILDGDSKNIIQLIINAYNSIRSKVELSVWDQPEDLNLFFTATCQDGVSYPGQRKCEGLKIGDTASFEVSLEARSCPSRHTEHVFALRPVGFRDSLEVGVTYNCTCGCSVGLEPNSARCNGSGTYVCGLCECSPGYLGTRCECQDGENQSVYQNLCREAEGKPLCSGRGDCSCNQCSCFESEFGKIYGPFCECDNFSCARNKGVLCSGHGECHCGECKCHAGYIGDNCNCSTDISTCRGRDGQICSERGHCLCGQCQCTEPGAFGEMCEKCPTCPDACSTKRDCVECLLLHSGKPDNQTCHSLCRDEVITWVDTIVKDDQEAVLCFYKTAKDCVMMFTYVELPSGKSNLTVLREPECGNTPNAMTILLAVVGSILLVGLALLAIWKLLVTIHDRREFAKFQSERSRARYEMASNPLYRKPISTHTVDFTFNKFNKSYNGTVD
# Assay Overview: Evaluation of integrin binding property (surface plasmon resonance, Biacore 3000, immobilized cyclic peptide)
# Conditions: peptide immobilized on CM5 sensor chip; human integrin αvβ5 30-1,000 nM, 25° C., HEPES buffer with 5 mM magnesium chloride; read-out: Integrin binding property (dissociation constant)
Numbered stars: 1 amine (or outer) side, 2 acyl side, 3 side chain; on linkers, the order of the positions; unused ones are H or OH. Bridge positions count the residues as written; N and C are the ends. Square brackets hold non-standard residues; d marks the D form. Peptide text beside a SMILES is read from it. hCys = N[C@@H](CCS)C(=O)O; Orn = NCCC[C@H](N)C(=O)O; X1 = O=C(C[*:1])[*:2]
# Kd annotations
Measured Endpoint: Kd

[[record]]
compound = "C[C@@H](O)[C@@H]1NC(=O)CSCC[C@@H](C(=O)N[C@@H](CCCCN)C(=O)N[C@@H](CCCCN)C(=O)N[C@@H](CCCCN)C(=O)O)NC(=O)[C@H](Cc2ccccc2)NC(=O)[C@@H]2CCCCNC(=O)CSCC[C@H](NC1=O)C(=O)N[C@@H](CCCNC(=N)N)C(=O)NCC(=O)N[C@@H](CC(=O)O)C(=O)N2 [Cyclic peptide 27] ({CH2CO}-T[hCys]RGDKF[hCys]KKK-OH; linker 2-6 via X1; thioether N-8)"
system_under_test = "human integrin αvβ5 (Homo sapiens, UniProt P06756+P18084)"
measured_endpoint = "Kd"
obs_value = "< 50 nM"

[[record]]
compound = "CC[C@H](C)[C@@H]1NC(=O)CSC[C@@H](C(=O)N[C@@H](CCCCN)C(=O)N[C@@H](CCCCN)C(=O)N[C@@H](CCCCN)C(=O)O)NC(=O)[C@H](Cc2ccccc2)NC(=O)[C@@H]2CCCNC(=O)CSC[C@H](NC1=O)C(=O)N[C@@H](CCCNC(=N)N)C(=O)NCC(=O)N[C@@H](CC(=O)O)C(=O)N2 [Cyclic peptide 10] ({CH2CO}-ICRGD[Orn]FCKKK-OH; linker 2-6 via X1; thioether N-8)"
system_under_test = "human integrin αvβ5 (Homo sapiens, UniProt P06756+P18084)"
measured_endpoint = "Kd"
obs_value = "50 to 100 nM"

[[record]]
compound = "CC[C@H](C)[C@@H]1NC(=O)CSCC[C@@H](C(=O)N[C@@H](CCCCN)C(=O)N[C@@H](CCCCN)C(=O)N[C@@H](CCCCN)C(=O)O)NC(=O)[C@@H]2CCCN2C(=O)[C@@H]2CCCCNC(=O)CSCC[C@H](NC1=O)C(=O)N[C@@H](CCCNC(=N)N)C(=O)NCC(=O)N[C@@H](CC(=O)O)C(=O)N2 [Cyclic peptide 31] ({CH2CO}-I[hCys]RGDKP[hCys]KKK-OH; linker 2-6 via X1; thioether N-8)"
system_under_test = "human integrin αvβ5 (Homo sapiens, UniProt P06756+P18084)"
measured_endpoint = "Kd"
obs_value = "50 to 100 nM"


----------
# System Under Test: human integrin αvβ5 (Homo sapiens, UniProt P06756+P18084)
# Assay Overview: Evaluation of integrin binding property (surface plasmon resonance, Biacore 3000, immobilized cyclic peptide)
# Conditions: peptide immobilized on CM5 sensor chip; human integrin αvβ5 30-1,000 nM, 25° C., HEPES buffer with 5 mM magnesium chloride; read-out: Integrin binding property (dissociation constant)
Numbered stars: 1 amine (or outer) side, 2 acyl side, 3 side chain; on linkers, the order of the positions; unused ones are H or OH. Bridge positions count the residues as written; N and C are the ends. Square brackets hold non-standard residues; d marks the D form. Peptide text beside a SMILES is read from it. hCys = N[C@@H](CCS)C(=O)O; X1 = O=C(C[*:1])[*:2]
Measured Endpoint: Kd

[[record]]
compound = "CC[C@H](C)[C@@H]1NC(=O)CSCC[C@@H](C(=O)N[C@@H](CCCCN)C(=O)N[C@@H](CCCCN)C(=O)N[C@@H](CCCCN)C(=O)O)NC(=O)[C@H](Cc2ccc(O)cc2)NC(=O)[C@@H]2CCCCNC(=O)CSCC[C@H](NC1=O)C(=O)N[C@@H](CCCNC(=N)N)C(=O)NCC(=O)N[C@@H](CC(=O)O)C(=O)N2 [Cyclic peptide 32] ({CH2CO}-I[hCys]RGDKY[hCys]KKK-OH; linker 2-6 via X1; thioether N-8)"
obs_value = "50 to 100 nM"

